Test system: HL-60
ASSAY COMMENT: HL-60 differentiation potency
Format: cell-based
CONDITION SET: Homo sapiens
TEST READOUT: EC50

Provide measured EC50 on HL-60 for C[C@H]1[C@@H](Oc2ccc(CC(=O)N[C@@H]3CC[C@H](C(=O)O)C3)cc2)O[C@@H]2O[C@@]3(C)CC[C@H]4[C@H](C)CC[C@@H]1[C@@]24OO3 [Compound 289] please. 27.6 nM

# lookup: HL-60 EC50, key = C[C@H]1[C@@H](OCc2ccc(C(=O)N[C@H](C(=O)O)C(C)(C)C)cc2)O[C@@H]2O[C@@]3(C)CC[C@H]4[C@H](C)CC[C@@H]1[C@@]24OO3 [Compound 281] 112 nM

Give measured EC50 for C[C@H]1[C@@H](Oc2ccc(C3CC3C(=O)O)cc2)O[C@@H]2O[C@@]3(C)CC[C@H]4[C@H](C)CC[C@@H]1[C@@]24OO3 (stereo partly drawn) [Compound 192] (HL-60). 67.2 nM

Determine reported EC50 for C[C@H]1[C@@H](Oc2ccc([C@H](N)C(=O)O)cc2)O[C@@H]2O[C@@]3(C)CC[C@H]4[C@H](C)CC[C@@H]1[C@@]24OO3 [Compound 194] ; test system: HL-60. 17700 nM

Give EC50; test system HL-60; compound C[C@H]1[C@@H](Oc2ccc(C(=O)N3[C@H](C(=O)O)C[C@@H]4C[C@@H]43)cc2)O[C@@H]2O[C@@]3(C)CC[C@H]4[C@H](C)CC[C@@H]1[C@@]24OO3 [Compound 258] > 20000 nM

Give EC50 for this entry on HL-60: CC(C)[C@H](Oc1ccc(O[C@H]2O[C@@H]3O[C@@]4(C)CC[C@H]5[C@H](C)CC[C@@H]([C@H]2C)[C@@]35OO4)cc1)C(=O)O [Compound 261] < 10 nM

* * *

Assign IC50 to each entry below.
ASSAY COMMENT: in vitro
CONDITION SET: human
Field format: number, assumed µM, no unit text.

Identify measured IC50 associated with C[C@H]1[C@H](NCCCS(C)(=O)=O)O[C@@H]2O[C@@]3(C)CC[C@H]4[C@H](C)CC[C@@H]1[C@@]24OO3 0.535

Provide measured IC50 value, entry: C[C@H]1[C@H](N2CC(S(C)(=O)=O)C2)O[C@@H]2O[C@@]3(C)CC[C@H]4[C@H](C)CC[C@@H]1[C@@]24OO3 0.101

Report IC50 for C[C@H]1[C@@H](Oc2ccc3c(c2)OC(C(=O)O)C3)O[C@@H]2O[C@@]3(C)CC[C@H]4[C@H](C)CC[C@@H]1[C@@]24OO3 (stereo partly drawn) 9

* * *

ASSAY COMMENT: in vitro
CONDITION SET: human
TEST READOUT: IC50

Retrieve IC50 measured for C[C@H]1[C@@H](OCCCc2ccc(C(=O)O)cc2)O[C@@H]2O[C@@]3(C)CC[C@H]4[C@H](C)CC[C@@H]1[C@@]24OO3 and print it. > 10 µM

Supply measured IC50 of C[C@H]1[C@H](OCc2c(F)cc(C(=O)O)cc2F)O[C@@H]2O[C@@]3(C)CC[C@H]4[C@H](C)CC[C@@H]1[C@@]24OO3 in your reply. > 20 µM

Please list IC50 recorded for the compound C[C@H]1[C@@H](Oc2ccc(C(F)(F)C(=O)O)cc2)O[C@@H]2O[C@@]3(C)CC[C@H]4[C@H](C)CC[C@@H]1[C@@]24OO3 > 20 µM

Name the recorded IC50 of the item C[C@H]1[C@H](OCc2ccc(C(=O)O)o2)O[C@@H]2O[C@@]3(C)CC[C@H]4[C@H](C)CC[C@@H]1[C@@]24OO3 in your answer. > 20 µM

Retrieve IC50 measured for C[C@H]1[C@@H](Oc2ccc(-c3nn[nH]n3)cc2)O[C@@H]2O[C@@]3(C)CC[C@H]4[C@H](C)CC[C@@H]1[C@@]24OO3 and print it. 0.0319 µM

Fill in IC50 for record C[C@H]1[C@@H](OCc2ccc(B(O)O)cc2)O[C@@H]2O[C@@]3(C)CC[C@H]4[C@H](C)CC[C@@H]1[C@@]24OO3 0.27 µM

* * *

Please go through the items and note down their pIC50.
ASSAY COMMENT: in vitro
CONDITION SET: human
Value format note: pIC50 is -log10 of concentration (mol/L); just state the number.

Answer with the recorded pIC50 of CC(C)[C@H](Oc1ccc(O[C@H]2O[C@@H]3O[C@@]4(C)CC[C@H]5[C@H](C)CC[C@@H]([C@H]2C)[C@@]35OO4)cc1)C(=O)O [Compound 261] only. 6.44

Fill in reported pIC50 for this entry: C[C@H]1[C@@H](Oc2ccc(C(=O)N3CC(C(=O)O)C3)cc2Cl)O[C@@H]2O[C@@]3(C)CC[C@H]4[C@H](C)CC[C@@H]1[C@@]24OO3 [Compound 244] 5.61

* * *

Please go through the items and note down their EC50.
Test system: HL-60
ASSAY COMMENT: HL-60 differentiation potency
Type: cell-based
CONDITION SET: Homo sapiens
Provide the reading as a plain figure in nM.

For the compound C[C@H]1[C@@H](Oc2ccc(C(=O)N3CC[C@@H](C(=O)O)C3)cc2Cl)O[C@@H]2O[C@@]3(C)CC[C@H]4[C@H](C)CC[C@@H]1[C@@]24OO3 [Compound 247] , give its measured EC50 value. 56.1

Let me know recorded EC50 for C[C@H]1[C@@H](Oc2ccc(C(=O)NC3(C(=O)O)COC3)cc2Cl)O[C@@H]2O[C@@]3(C)CC[C@H]4[C@H](C)CC[C@@H]1[C@@]24OO3 [Compound 265] , thanks. 6450

Give EC50 for C[C@H]1[C@@H](OCc2ccc(OCC(=O)O)cc2Cl)O[C@@H]2O[C@@]3(C)CC[C@H]4[C@H](C)CC[C@@H]1[C@@]24OO3 [Compound 223] 111

Check the records and state EC50 for C[C@H]1[C@@H](OCC(=O)Nc2ccc(C(=O)O)cc2)O[C@@H]2O[C@@]3(C)CC[C@H]4[C@H](C)CC[C@@H]1[C@@]24OO3 [Compound 213] 325

Fill in EC50 for record C[C@H]1[C@@H](Oc2ccc(COCC(=O)O)cc2)O[C@@H]2O[C@@]3(C)CC[C@H]4[C@H](C)CC[C@@H]1[C@@]24OO3 [Compound 219] 62

Output measured EC50 for this item: C[C@H]1[C@@H](OC[C@@]2(F)CCC(C(=O)O)C2)O[C@@H]2O[C@@]3(C)CC[C@H]4[C@H](C)CC[C@@H]1[C@@]24OO3 (some centres unmarked) [Compound 210] 2500

Using the record for C[C@H]1[C@@H](Oc2ccc(OC(C)(C)C(=O)O)cc2)O[C@@H]2O[C@@]3(C)CC[C@H]4[C@H](C)CC[C@@H]1[C@@]24OO3 [Compound 221] , state its measured EC50. 124

Identify the reported EC50 for the following entry. C[C@H]1[C@@H](Oc2ccc(C(=O)N(C)[C@H]3CC[C@@H](C(=O)O)C3)cc2)O[C@@H]2O[C@@]3(C)CC[C@H]4[C@H](C)CC[C@@H]1[C@@]24OO3 [Compound 272] 105

Please give the documented EC50 of C[C@H]1[C@@H](Oc2ccc(C3(C(=O)O)COC3)cc2)O[C@@H]2O[C@@]3(C)CC[C@H]4[C@H](C)CC[C@@H]1[C@@]24OO3 [Compound 283] 40.3

Provide one value: measured EC50 of C[C@H]1[C@@H](OCC(=O)N[C@H](C(=O)O)C(C)(C)C)O[C@@H]2O[C@@]3(C)CC[C@H]4[C@H](C)CC[C@@H]1[C@@]24OO3 [Compound 188] 5060

Answer with the recorded EC50 of C[C@@H]1CC[C@H]2[C@@H](C)[C@](OCc3ccc(C(=O)O)cc3Cl)(C(F)(F)F)O[C@@H]3O[C@@]4(C)CC[C@@H]1[C@]32OO4 [Compound 196] only. 10.3

* * *

ASSAY COMMENT: in vitro
CONDITION SET: human, HL-60 cells
TEST READOUT: IC50 (µM)
Report as a plain number; the unit µM is understood.

Please supply the value of reported IC50 for the item C[C@H]1[C@@H](Oc2ccc(O[C@H]3C[C@@H](C(=O)O)C3)cc2)O[C@@H]2O[C@@]3(C)CC[C@H]4[C@H](C)CC[C@@H]1[C@@]24OO3 1

* * *

System: HL-60
ASSAY COMMENT: HL-60 differentiation potency
Format: cell-based
CONDITION SET: Homo sapiens
pEC50: −log10 of the molar value.
Assign class by pEC50: not lower than 6 means 1; lower than 6 means 0.

Would you say C[C@H]1[C@@H](OCc2ccc(B(O)O)cc2)O[C@@H]2O[C@@]3(C)CC[C@H]4[C@H](C)CC[C@@H]1[C@@]24OO3 shows pEC50 at minimum 6? 1

Given C[C@H]1[C@@H](OCc2ccc(C(=O)O)c(C(F)(F)F)c2)O[C@@H]2O[C@@]3(C)CC[C@H]4[C@H](C)CC[C@@H]1[C@@]24OO3 , state whether its pEC50 is at least 6. 1

API: above_or_equal(metric=pEC50, cutoff=6) for item C[C@H]1[C@@H](CCN2CC(C(=O)O)C2)O[C@@H]2O[C@@]3(C)CC[C@H]4[C@H](C)CC[C@@H]1[C@@]24OO3 0

Answer whether pEC50 of C[C@H]1[C@H](N[C@@H](C)c2ccc(S(C)(=O)=O)cc2)O[C@@H]2O[C@@]3(C)CC[C@H]4[C@H](C)CC[C@@H]1[C@@]24OO3 is greater than or equal to 6. 0

Given the entry C[C@H]1[C@H](Oc2cc(F)c(CC(=O)O)c(F)c2)O[C@@H]2O[C@@]3(C)CC[C@H]4[C@H](C)CC[C@@H]1[C@@]24OO3 , answer whether its pEC50 meets or surpasses 6. 1

Given the entry C[C@H]1[C@@H](OCC2CCC(F)(F)CC2)O[C@@H]2O[C@@]3(C)CC[C@H]4[C@H](C)CC[C@@H]1[C@@]24OO3 , answer whether its pEC50 meets or surpasses 6. 1

Does C[C@H]1[C@H](NCc2ccncc2)O[C@@H]2O[C@@]3(C)CC[C@H]4[C@H](C)CC[C@@H]1[C@@]24OO3 have a reported pEC50 of at least 6? 0

Can C[C@H]1[C@H](OCc2ccc(C#N)cc2)O[C@@H]2O[C@@]3(C)CC[C@H]4[C@H](C)CC[C@@H]1[C@@]24OO3 be said to have pEC50 at or above 6? 1

Hi, just wondering whether C[C@H]1[C@@H](OCc2c(Cl)cc(C(=O)O)cc2Cl)O[C@@H]2O[C@@]3(C)CC[C@H]4[C@H](C)CC[C@@H]1[C@@]24OO3 shows pEC50 of 6 or higher. 1

pEC50 >= 6 for C[C@H]1[C@H](OCc2ccc(C(=O)O)c(F)c2)O[C@@H]2O[C@@]3(C)CC[C@H]4[C@H](C)CC[C@@H]1[C@@]24OO3 ? 1

API: above_or_equal(metric=pEC50, cutoff=6) for item Cc1cc(CN[C@@H]2O[C@@H]3O[C@@]4(C)CC[C@H]5[C@H](C)CC[C@@H]([C@H]2C)[C@@]35OO4)cc(C)n1 1

Would you say Cc1cc(CO[C@@H]2O[C@@H]3O[C@@]4(C)CC[C@H]5[C@H](C)CC[C@@H]([C@H]2C)[C@@]35OO4)ccc1C(=O)O shows pEC50 at minimum 6? 0

Could you tell me if the measured pEC50 of C[C@H]1[C@H](OCCS(C)(=O)=O)O[C@@H]2O[C@@]3(C)CC[C@H]4[C@H](C)CC[C@@H]1[C@@]24OO3 reaches 6 or more? 0

# check: pEC50 of C[C@H]1[C@H](NCCc2ccccc2)O[C@@H]2O[C@@]3(C)CC[C@H]4[C@H](C)CC[C@@H]1[C@@]24OO3 is greater than or equal to 6 1

Say whether C[C@H]1[C@@H](OCc2ccc(-c3nn[nH]n3)cc2)O[C@@H]2O[C@@]3(C)CC[C@H]4[C@H](C)CC[C@@H]1[C@@]24OO3 shows pEC50 of 6 or more. 1

Determine whether measured pEC50 meets or exceeds 6 for C[C@H]1[C@H](OCC(=O)N2C[C@H](F)C[C@H]2C(=O)O)O[C@@H]2O[C@@]3(C)CC[C@H]4[C@H](C)CC[C@@H]1[C@@]24OO3 0

Determine whether measured pEC50 meets or exceeds 6 for C[C@H]1[C@H](N(C)C23CC(C(=O)O)(C2)C3)O[C@@H]2O[C@@]3(C)CC[C@H]4[C@H](C)CC[C@@H]1[C@@]24OO3 0

Reported pEC50 reaches at least 6 for COc1cc(CO[C@@H]2O[C@@H]3O[C@@]4(C)CC[C@H]5[C@H](C)CC[C@@H]([C@H]2C)[C@@]35OO4)ccc1C(=O)O ? 0

For this compound, is measured pEC50 6 or higher? C[C@H]1[C@H](N2CCC(C(=O)O)CC2)O[C@@H]2O[C@@]3(C)CC[C@H]4[C@H](C)CC[C@@H]1[C@@]24OO3 0

I'd appreciate it if you could say whether C[C@H]1[C@@H](OCc2ccc(C(=O)O)cc2Cl)O[C@@H]2O[C@@]3(C)CC[C@H]4[C@H](C)CC[C@@H]1[C@@]24OO3 has pEC50 at least equal to 6. 1

Is pEC50 at least 6? Consider C[C@H]1[C@@H](Oc2ccc(F)c(CC(=O)O)c2)O[C@@H]2O[C@@]3(C)CC[C@H]4[C@H](C)CC[C@@H]1[C@@]24OO3 1

Does C[C@H]1[C@@H](OCC(=O)N2C[C@H]3[C@@H]([C@H]2C(=O)O)C3(C)C)O[C@@H]2O[C@@]3(C)CC[C@H]4[C@H](C)CC[C@@H]1[C@@]24OO3 have a reported pEC50 of at least 6? 0

I'd appreciate it if you could say whether C[C@H]1[C@H](OCc2ccc(S(N)(=O)=O)cc2)O[C@@H]2O[C@@]3(C)CC[C@H]4[C@H](C)CC[C@@H]1[C@@]24OO3 has pEC50 at least equal to 6. 0

Exam item: decide whether the reported pEC50 for COc1cc(CN[C@@H]2O[C@@H]3O[C@@]4(C)CC[C@H]5[C@H](C)CC[C@@H]([C@H]2C)[C@@]35OO4)ccn1 is at least 6. 0
